Biological target: Aryl hydrocarbon receptor (Homo sapiens) (UniProt P35869)
Sequence (P35869 whole entry, looked up): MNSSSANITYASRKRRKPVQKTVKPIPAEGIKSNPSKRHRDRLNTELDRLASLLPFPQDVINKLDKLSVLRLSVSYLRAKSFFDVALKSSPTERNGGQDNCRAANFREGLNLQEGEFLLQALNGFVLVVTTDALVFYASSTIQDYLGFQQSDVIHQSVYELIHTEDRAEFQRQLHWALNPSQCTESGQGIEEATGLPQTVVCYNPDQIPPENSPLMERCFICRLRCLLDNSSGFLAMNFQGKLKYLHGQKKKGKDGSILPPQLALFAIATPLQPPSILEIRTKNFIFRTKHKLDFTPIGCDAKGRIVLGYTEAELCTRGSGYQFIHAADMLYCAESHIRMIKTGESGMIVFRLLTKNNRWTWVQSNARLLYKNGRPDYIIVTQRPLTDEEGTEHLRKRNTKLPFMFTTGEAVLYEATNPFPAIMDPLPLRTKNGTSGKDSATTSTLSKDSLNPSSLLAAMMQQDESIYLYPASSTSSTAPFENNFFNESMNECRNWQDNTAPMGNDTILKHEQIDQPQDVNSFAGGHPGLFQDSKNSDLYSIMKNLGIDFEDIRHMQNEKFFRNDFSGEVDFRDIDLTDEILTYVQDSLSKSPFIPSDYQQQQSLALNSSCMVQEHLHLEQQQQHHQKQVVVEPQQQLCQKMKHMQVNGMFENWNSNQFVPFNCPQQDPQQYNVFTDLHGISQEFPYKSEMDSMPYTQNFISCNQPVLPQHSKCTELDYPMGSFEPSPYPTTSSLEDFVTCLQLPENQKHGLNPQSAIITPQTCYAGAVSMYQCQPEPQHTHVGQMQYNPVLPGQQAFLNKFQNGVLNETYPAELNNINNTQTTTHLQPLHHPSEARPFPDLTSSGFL
Experiment: qHTS assay to identify small molecule that activate the aryl hydrocarbon receptor (AhR) signaling pathway (AID 743085); note: nearly all actives have a fitted effect of over 15% in size;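 for activation: HG2L7.5c1 human HepG2 liver cells with stably integrated DRE-driven firefly reporter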
Conditions: HepG2 AhR-luc (HG2L7.5c1), luciferase, 24 h; series mostly up to 70.3 µM
Results filed as inconclusive are left out. The source made the active and inactive calls. Calls come from the whole dose curve; as a rule, active = well fitted activation curve with a large enough effect in the repeat runs; inconclusive = weak or mixed curves; inactive = no such curve, though single readings can be large or run the other way.
Returns: one label drawn from y = active, n = inactive

Completed entries (count: 10):
# input I would be grateful if you could indicate the recorded call for CCNCCO .
# output n

# input I would be grateful if you could indicate the recorded call for FC(F)(F)C(F)(F)C(F)(F)C(F)(F)C(F)(F)C(F)(F)C(F)(F)C(F)(F)Br .
# output n

# input I would be grateful if you could indicate the recorded call for CCCCC(=O)O[C@]1(C(=O)CO)[C@H](C)C[C@H]2[C@@H]3CCC4=CC(=O)C=C[C@]4(C)[C@@]3(F)[C@@H](O)C[C@@]21C .
# output n

# input I would be grateful if you could indicate the recorded call for COc1nc(C)nc(NC(=O)NS(=O)(=O)c2ccccc2OCCCl)n1 .
# output n

# input I would be grateful if you could indicate the recorded call for Cc1c(-c2ccccc2)oc2c(C(=O)OCCN3CCCCC3)cccc2c1=O .
# output n

# input I would be grateful if you could indicate the recorded call for C[C@@H](N)C(=O)O .
# output n

# input I would be grateful if you could indicate the recorded call for CN1CCC[C@@H]1Cc1c[nH]c2ccc(CCS(=O)(=O)c3ccccc3)cc12 .
# output n

# input I would be grateful if you could indicate the recorded call for COc1ccc(Nc2ccc(OC)cc2)cc1 .
# output n

# input I would be grateful if you could indicate the recorded call for O=C(O)c1ccccc1Nc1cc(Cl)ccc1C(=O)O .
# output n

# input I would be grateful if you could indicate the recorded call for CCc1cc(Cl)c(OC)c(C(=O)NC[C@@H]2CCCN2CC)c1O .
# output n

Others:
# input I would be grateful if you could indicate the recorded call for Cc1ccc([N+](=O)[O-])c(N)c1 .
# output n

# input I would be grateful if you could indicate the recorded call for COc1cc(C)ccc1C(C)C .
# output n

# input I would be grateful if you could indicate the recorded call for Cc1ncc(CO)c(CN)c1O .
# output n

# input I would be grateful if you could indicate the recorded call for OCc1c2ccccc2cc2ccccc12 .
# output n

# input I would be grateful if you could indicate the recorded call for O=C(O)C(=O)Cc1c[nH]c2ccccc12 .
# output y

# input I would be grateful if you could indicate the recorded call for COc1ccccc1N1CCN(CCCNc2cc(=O)n(C)c(=O)n2C)CC1 .
# output n

# input I would be grateful if you could indicate the recorded call for NC1=NCC2c3ccccc3Cc3ccccc3N12 (configuration not stated) .
# output n

---

Target: Cytochrome P450 1A2 (Homo sapiens)
Assay: Cytochrome P450 Family 1 Subfamily A Member 2 (CYP1A2) small molecule antagonists: luciferase reporter qHTS assay (AID 1671199); note: nearly all actives have a fitted effect of over 50% in size
Conditions: P450-Glo CYP1A2 enzyme, luciferin luminescence, 1 h; series mostly up to 53 µM
Inconclusive results are not listed. The source made the active and inactive calls. Calls follow the shape of the dose curve; as a rule, active = well fitted inhibition curve with a large enough effect in the repeat runs; inconclusive = weak or mixed curves; inactive = no such curve, though single readings can be large or run the other way.
Returns: one label drawn from active, inactive

Completed entries (count: 8):
# input I would be grateful if you could indicate the recorded call for O=C(O)[C@@H]1CSCN1 .
# output inactive

# input I would be grateful if you could indicate the recorded call for OC[C@H]1O[C@@H](O[C@H]2[C@H](O)[C@@H](O)[C@H](O)O[C@@H]2CO)[C@H](O)[C@@H](O)[C@H]1O .
# output inactive

# input I would be grateful if you could indicate the recorded call for CC1CN(c2ccccc2)NC1=O (stereo unspecified) .
# output active

# input I would be grateful if you could indicate the recorded call for O=C1C=CC(=O)O1 .
# output inactive

# input I would be grateful if you could indicate the recorded call for O=C(O)[C@@H](O)[C@H](O)[C@H](O)[C@@H](O)C(=O)O .
# output inactive

# input I would be grateful if you could indicate the recorded call for Cc1cc2nc(N)sc2cc1C .
# output active

# input I would be grateful if you could indicate the recorded call for CCC/C=C/CO .
# output inactive

# input I would be grateful if you could indicate the recorded call for Cc1ccc([N+](=O)[O-])c(N)c1 .
# output active

Others:
# input I would be grateful if you could indicate the recorded call for C[C@@H]1CN(c2c(F)c(F)c3c(=O)c(C(=O)O)cn(C4CC4)c3c2F)C[C@H](C)N1 .
# output inactive

# input I would be grateful if you could indicate the recorded call for Cc1ccc(C)c(N)c1 .
# output active

# input I would be grateful if you could indicate the recorded call for CN1C(=O)CC(c2ccccc2)C1=O (stereo unspecified) .
# output inactive

# input I would be grateful if you could indicate the recorded call for CC1=CC(=O)CC(C)(C)C1=O .
# output inactive

# input I would be grateful if you could indicate the recorded call for CS(=O)(=O)c1ccc([C@@H](O)[C@@H](CF)NC(=O)C(Cl)Cl)cc1 .
# output inactive

# input I would be grateful if you could indicate the recorded call for CC1=NN(c2cc(Cl)c(S(=O)(=O)O)cc2Cl)C(=O)C1N=Nc1ccc(S(=O)(=O)O)cc1 (stereo unspecified) .
# output inactive

# input I would be grateful if you could indicate the recorded call for CO[C@@]1(NC(=O)CSCC#N)C(=O)N2C(C(=O)O)=C(CSc3nnnn3C)CS[C@@H]21 .
# output active

# input I would be grateful if you could indicate the recorded call for CCCCC(=O)O[C@]1(C(=O)CO)[C@H](C)C[C@H]2[C@@H]3CCC4=CC(=O)C=C[C@]4(C)[C@@]3(F)[C@@H](O)C[C@@]21C .
# output inactive

# input I would be grateful if you could indicate the recorded call for C=Cc1ccccc1 .
# output inactive

# input I would be grateful if you could indicate the recorded call for O=C(C(Cl)Cl)N1CCOC12CCCCC2 .
# output inactive

# input I would be grateful if you could indicate the recorded call for O=c1[nH]cnc2c1ncn2[C@@H]1O[C@H](CO)[C@@H](O)[C@H]1O .
# output inactive

---

Target: Progesterone receptor (Homo sapiens)
Test: qHTS assay to identify small molecule agonists of the progesterone receptor (PR) signaling pathway (AID 1346784); note: nearly all actives have a fitted effect of over 30% in size
Conditions: PR-UAS-bla HEK293T, beta-lactamase FRET ratio, 16 h; series mostly up to 92.4 µM
Inconclusive results are not listed. Activity calls are given as the source filed them. Calls come from the whole dose curve.
valueKind: activation

# input Please indicate activation recorded for Cc1nc(N)nc(N)c1-c1ccc(Cl)c(Cl)c1
# output inactive

# input Please indicate activation recorded for O=C(Cl)c1cccc([N+](=O)[O-])c1
# output inactive

# input Please indicate activation recorded for CN1CCN(c2c(F)cc3c(=O)c(C(=O)O)cn(CCF)c3c2F)CC1
# output inactive

# input Please indicate activation recorded for O=C1CCCc2ccccc21
# output inactive

# input Please indicate activation recorded for CC(C)CC(=O)OCc1ccccc1
# output inactive

Others:
# input Please indicate activation recorded for C[C@@H](N)C(=O)O
# output inactive

# input Please indicate activation recorded for C=Cc1ccccc1
# output inactive

# input Please indicate activation recorded for C=CCCCCCCCCO
# output inactive

---

Experiment: qHTS assay to identify small molecule antagonists of the sonic hedgehog signaling (Shh) pathway - cell viability counter screen (AID 1259367); note: nearly all actives have a fitted effect of over 55% in size
Details: NIH/3T3 Gli1-Luc viability, CellTiter-Fluor, 24 h; series mostly up to 92.4 µM
Records with an inconclusive call do not appear. Active and inactive are the calls of the source. Calls follow the shape of the dose curve; as a rule, active = well fitted cell-killing curve with a large enough effect in the repeat runs; inconclusive = weak or mixed curves, or effect the other way; inactive = no such curve, though single readings can be large or run the other way.
Returns: one label drawn from active, inactive

Completed entries (count: 4):
# input I would be grateful if you could indicate the recorded call for O=C(O)[C@@H]1CSCN1 .
# output inactive

# input I would be grateful if you could indicate the recorded call for Cc1cc2c(s1)Nc1ccccc1N=C2N1CCN(C)CC1 .
# output active

# input I would be grateful if you could indicate the recorded call for O=C(Cl)c1cccc([N+](=O)[O-])c1 .
# output inactive

# input I would be grateful if you could indicate the recorded call for CCC(=O)c1ccc2c(c1)N(CCCN(C)C)c1ccccc1S2 .
# output inactive

Others:
# input I would be grateful if you could indicate the recorded call for Cc1onc(-c2ccccc2)c1C(=O)Cl .
# output inactive

# input I would be grateful if you could indicate the recorded call for CN1CCN(C2=Nc3cc(F)ccc3Cc3ccccc32)CC1 .
# output inactive

# input I would be grateful if you could indicate the recorded call for CC(C)(C)c1cccc(O)c1 .
# output inactive

# input I would be grateful if you could indicate the recorded call for Cn1cnc2c(F)c(Nc3ccc(Br)cc3Cl)c(C(=O)NOCCO)cc21 .
# output inactive

# input I would be grateful if you could indicate the recorded call for N#CSCC(=O)O .
# output inactive

# input I would be grateful if you could indicate the recorded call for COc1cc(C)ccc1C(C)C .
# output inactive

# input I would be grateful if you could indicate the recorded call for CC(C)OC(C)C .
# output inactive

# input I would be grateful if you could indicate the recorded call for CCCCCCCCCC/C=C/C#N .
# output inactive

# input I would be grateful if you could indicate the recorded call for Cc1nc(N)nc(N)c1-c1ccc(Cl)c(Cl)c1 .
# output inactive

# input I would be grateful if you could indicate the recorded call for CC(C)=CCC[C@](C)(O)[C@@H]1CC=C(C)CC1 .
# output inactive
